# System: SF-268
# assayExplanation: Cytotoxicity against human SF268 cells after 48 hrs by SRB assay
# Type: functional
# experimentalSetup: SF-268, 48 h
Reported GI50 values are given for each entry in this list.
valueType: GI50 (µM)

INSERT INTO results (compound, assaytarget, valuetype, val) VALUES
  ('COc1cc([C@@H]2c3cc4c(cc3[C@@H](O[C@@H]3O[C@@H]5CO[C@@H](C)O[C@H]5[C@H](O)[C@H]3O)[C@H]3COC(=O)[C@H]23)OCO4)cc(OC)c1O [ETOPOSIDE]', 'SF-268', 'GI50', 4.21),
  ('c1ccc(CC23CC4CC(CC(C4)C2NCCN2CCNCC2)C3)cc1 (stereo not drawn)', 'SF-268', 'GI50', 22.2),
  ('CN(C)CCCNC1C2CC3CC(C2)CC1(Cc1ccccc1)C3 (stereo not drawn)', 'SF-268', 'GI50', 9.09),
  ('NC1C2CC3CC(C2)CC1(c1ccccc1)C3 (stereo not drawn)', 'SF-268', 'GI50', 100),
  ('O=c1[nH]cc(F)c(=O)[nH]1', 'SF-268', 'GI50', 49.2),
  ('c1ccc(CC23CC4CC(CC(C4)C2NCCCN2CCOCC2)C3)cc1 (stereo not drawn)', 'SF-268', 'GI50', 56.4),
  ('Cl.NC1C2CC3CC(C2)CC1(Cc1ccc(F)cc1)C3 (stereo not drawn)', 'SF-268', 'GI50', 7.83),
  ('c1ccc2c(c1)CNC1C3CC4CC(C3)CC21C4 (stereo not drawn)', 'SF-268', 'GI50', 100),
  ('c1ccc(CC23CC4CC(CC(C4)C2NCCCn2ccnc2)C3)cc1 (stereo not drawn)', 'SF-268', 'GI50', 28.8),
  ('c1ccc(CC23CC4CC(CC(C4)C2NCCN2CCCCC2)C3)cc1 (stereo not drawn)', 'SF-268', 'GI50', 13.1),
  ('CN(C)CCNC1C2CC3CC(C2)CC1(Cc1ccccc1)C3 (stereo not drawn)', 'SF-268', 'GI50', 29.3),
  ('Cl.NC1C2CC3CC(C2)CC1(Cc1ccccc1)C3 (stereo not drawn)', 'SF-268', 'GI50', 21),
  ('COc1ccc(CC23CC4CC(CC(C4)C2N)C3)cc1.Cl (stereo not drawn)', 'SF-268', 'GI50', 21.2);

From: ChEMBL document CHEMBL2429866
